meta.source: patent US8445503B2

# Lookup of reported IC50 keyed by entry
Target: GST-PLK3 (Homo sapiens, UniProt Q9H4B4)
Construct: purchased CarnaBio
Sequence (Q9H4B4 whole entry): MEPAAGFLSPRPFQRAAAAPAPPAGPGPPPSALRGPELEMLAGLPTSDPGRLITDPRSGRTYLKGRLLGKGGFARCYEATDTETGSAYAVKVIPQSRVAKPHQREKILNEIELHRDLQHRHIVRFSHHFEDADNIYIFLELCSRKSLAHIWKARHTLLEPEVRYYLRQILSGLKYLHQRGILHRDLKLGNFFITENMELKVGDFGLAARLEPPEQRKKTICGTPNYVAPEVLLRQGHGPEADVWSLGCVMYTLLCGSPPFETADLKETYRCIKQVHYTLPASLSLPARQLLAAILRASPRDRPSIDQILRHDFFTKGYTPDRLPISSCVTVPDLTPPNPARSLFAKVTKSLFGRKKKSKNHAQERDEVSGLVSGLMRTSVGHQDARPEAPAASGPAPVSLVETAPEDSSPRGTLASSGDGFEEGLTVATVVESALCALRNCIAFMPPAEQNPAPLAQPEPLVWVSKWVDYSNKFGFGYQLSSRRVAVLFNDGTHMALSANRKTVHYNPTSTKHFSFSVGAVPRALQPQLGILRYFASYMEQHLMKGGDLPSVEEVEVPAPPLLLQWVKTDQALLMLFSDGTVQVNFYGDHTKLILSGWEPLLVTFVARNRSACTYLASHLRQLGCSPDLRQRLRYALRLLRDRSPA
Test: PLK TR-FRET peptide assay, PLK3
Assay type: biochemical
Conditions: PLK TR-FRET peptide assay, GST-PLK3; read-out: Plk3 IC50
endpoint: IC50

compound=CC[C@@H]1C(=O)N(C)c2cnc(-n3cnc(-c4cscn4)c3)nc2N1C1CCCC1 result="1 to 10 µM"
compound=CC[C@@H]1C(=O)N(C)c2cnc(-n3ccnc3-c3cnccn3)nc2N1C1CCOCC1 result="> 50 µM"
compound=CC[C@@H]1C(=O)N(C)c2cnc(-n3cnc(CCN)c3)nc2N1C1CCCC1 result="10 to 50 µM"
compound=CC[C@@H]1C(=O)N(C)c2cnc(-n3ccnc3N3CCOC3=O)nc2N1C1CCCC1 result="10 to 50 µM"
compound="CCC1C(=O)N(C)c2cnc(-n3ccnc3-c3ccccc3)nc2N1N1CCCC1 (centres unmarked)" result="10 to 50 µM"
compound=CC[C@]12COCCN1c1nc(-c3cccnc3-c3ccccc3)ncc1N(C)C2=O result="> 50 µM"
compound=CC[C@@H]1C(=O)N(C)c2cnc(-n3ncnc3-c3ccccc3)nc2N1C1CCCC1 result="< 1 µM"
compound=CC[C@@H]1C(=O)N(C)c2cnc(-n3ccc(C(=O)N(C)C)n3)nc2N1C1CCCC1 result="1 to 10 µM"
compound=CC[C@@H]1C(=O)N(C)c2cnc(-n3ccnc3-c3ccc(F)cc3)nc2N1C1CC(F)(F)C1 result="10 to 50 µM"
compound=CC[C@@]12CCCN1c1nc(-n3ccnc3-c3cnccn3)ncc1N(C)C2=O result="> 50 µM"
compound=CC[C@]12COCCN1c1nc(-c3snnc3-c3ccc(F)cc3F)ncc1N(C)C2=O result="> 50 µM"
compound=CC[C@@H]1C(=O)N(C)c2cnc(-n3ccnc3-c3ccccc3)nc2N1CCC(F)(F)F result="1 to 10 µM"
compound=CC[C@@H]1C(=O)N(C)c2cnc(-c3cn[nH]c3-c3ccccc3)nc2N1C1CCCC1 result="< 1 µM"
compound=CC[C@]12COCCN1c1nc(-n3ccnc3-c3nccs3)ncc1N(C)C2=O result="> 50 µM"
compound=CC[C@@]12COCCN1c1nc(-c3cn[nH]c3-c3ccc(F)cc3F)ncc1N(C)C2=O result="1 to 10 µM"
compound=CC[C@@H]1C(=O)N(C)c2cnc(-n3ccnc3-c3ncccn3)nc2N1C(C)C result="10 to 50 µM"
compound=CC[C@H]1C(=O)N(C)c2cnc(-n3ccnc3-c3ccccc3)nc2N1c1cnn(C)c1 result="> 50 µM"
